Procedure Summary: Phase 1 single-dose plasma pharmacokinetics in subjects with normal hepatic function, mild or moderate hepatic impairment
Assay type: in vivo, human
Assay Conditions: human, plasma, po, 200 mg, Normal Hepatic Function; 200 mg single oral dose; read-out: t1/2, Arithmetic Mean (converted)
Source text: Patients: 27 subjects were enrolled within the following groups based on their Child-Pugh (CP) classification score: • Group 1: Matched-control healthy subjects with normal hepatic function; • Group 2: Subjects with mild hepatic impairment (CP Class A, score of 5 or 6); • Group 3: Subjects with moderate hepatic impairment (CP Class B, score of 7 to 9). A parallel design strategy was adopted for the hepatic impairment groups. […]
Property Label: half-life (h)
Enter your answer as a number in h; do not include the unit.

So what does the record say about half-life for N#CC1(c2ccc(NC(=O)c3cccnc3NCc3ccncc3)cc2)CCCC1 ? 17.9

---

Procedure Summary: Phase 1 single-dose plasma pharmacokinetics in subjects with normal hepatic function, mild or moderate hepatic impairment
Format: in vivo, human
Assay Conditions: human, plasma, po, 200 mg, Normal Hepatic Function; 12 h; 200 mg single oral dose; read-out: Plasma concentration, Geometric Mean
Property Label: concentration at 12 h (ng/mL)
Just the number please, in ng/mL, no unit attached.

I would be grateful if you could share the reported concentration at 12 h for N#CC1(c2ccc(NC(=O)c3cccnc3NCc3ccncc3)cc2)CCCC1 [Rivoceranib] . 63.2

---

Procedure Summary: Phase 1 study: unbound plasma concentration and fraction unbound (protein binding)
Assay type: in vivo, human
Assay Conditions: human, plasma, po, 200 mg, Normal Hepatic Function; 4 h; 200 mg single oral dose; read-out: Unbound Concentration, Arithmetic Mean
Property Label: concentration at 4 h

For the compound N#CC1(c2ccc(NC(=O)c3cccnc3NCc3ccncc3)cc2)CCCC1 , what concentration at 4 h is on record? 4.44 ng/mL

---

Experimental Target: CYP1A2 (Homo sapiens, UniProt P05177)
Sequence (P05177 whole entry): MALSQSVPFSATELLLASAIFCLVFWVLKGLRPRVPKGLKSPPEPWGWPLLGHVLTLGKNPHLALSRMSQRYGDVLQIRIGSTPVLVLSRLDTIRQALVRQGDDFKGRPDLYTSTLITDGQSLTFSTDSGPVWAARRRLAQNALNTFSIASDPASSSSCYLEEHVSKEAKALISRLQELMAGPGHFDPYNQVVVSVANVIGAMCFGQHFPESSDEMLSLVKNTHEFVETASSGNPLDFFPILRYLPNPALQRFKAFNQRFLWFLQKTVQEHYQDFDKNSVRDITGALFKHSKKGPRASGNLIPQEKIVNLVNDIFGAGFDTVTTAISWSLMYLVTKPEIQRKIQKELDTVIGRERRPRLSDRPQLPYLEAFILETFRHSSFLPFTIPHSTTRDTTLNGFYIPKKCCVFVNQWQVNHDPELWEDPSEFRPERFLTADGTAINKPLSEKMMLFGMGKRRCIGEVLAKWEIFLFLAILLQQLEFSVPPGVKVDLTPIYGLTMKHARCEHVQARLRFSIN
Procedure Summary: In vitro CYP phenotyping and metabolism study, recombinant CYP1A2
Type: in vitro ADME
Assay Conditions: human; Recombinant CYP1A2; 5 μM; read-out: t½
Property Label: half-life at 5 µM (min)
Lab book: enter the figure in min, no units written.

What value of half-life at 5 µM has been recorded for this entry: N#CC1(c2ccc(NC(=O)c3cccnc3NCc3ccncc3)cc2)CCCC1 671

---

Procedure Summary: Phase 1 single-dose plasma pharmacokinetics in subjects with normal hepatic function, mild or moderate hepatic impairment
Format: in vivo, human
Assay Conditions: human, plasma, po, 200 mg, Moderate Hepatic Impairment; 200 mg single oral dose; read-out: Cmax, Arithmetic Mean
Property Label: Cmax (ng/mL)
Express it in ng/mL; write the number only.

Look up Cmax: N#CC1(c2ccc(NC(=O)c3cccnc3NCc3ccncc3)cc2)CCCC1 239

---

Procedure Summary: Phase 1 single-dose plasma pharmacokinetics in subjects with normal hepatic function, mild or moderate hepatic impairment
Format: in vivo, human
Assay Conditions: human, plasma, po, 200 mg, Moderate Hepatic Impairment; 6 h; 200 mg single oral dose; read-out: Plasma concentration, Median
Property Label: concentration at 6 h (ng/mL)
I only need the number, in ng/mL, no unit after it.

Requested field: concentration at 6 h. Item: N#CC1(c2ccc(NC(=O)c3cccnc3NCc3ccncc3)cc2)CCCC1 [Rivoceranib] 93.8

---

Procedure Summary: Phase 1 single-dose plasma pharmacokinetics in subjects with normal hepatic function, mild or moderate hepatic impairment
Format: in vivo, human
Assay Conditions: human, plasma, po, 200 mg, Normal Hepatic Function; 4 h; 200 mg single oral dose; read-out: Plasma concentration, Arithmetic Mean
Property Label: concentration at 4 h (ng/mL)
Kindly provide the numeric value in ng/mL only, without the unit symbol.

Sample N#CC1(c2ccc(NC(=O)c3cccnc3NCc3ccncc3)cc2)CCCC1 — what was its concentration at 4 h? 164

---

Procedure Summary: Phase 1 single-dose plasma pharmacokinetics in subjects with normal hepatic function, mild or moderate hepatic impairment
Assay type: in vivo, human
Assay Conditions: human, plasma, po, 200 mg, Moderate Hepatic Impairment; 200 mg single oral dose; read-out: VZ/F, Arithmetic Mean
Property Label: Vd/F

Entry N#CC1(c2ccc(NC(=O)c3cccnc3NCc3ccncc3)cc2)CCCC1 [Rivoceranib] has what Vd/F? 2250 L

---

Procedure Summary: Phase 1 single-dose plasma pharmacokinetics in subjects with normal hepatic function, mild or moderate hepatic impairment
Format: in vivo, human
Assay Conditions: human, plasma, oral, 200 mg, Moderate vs Normal: matched Normal hepatic function; paired analysis; read-out: AUC0-t, Geometric Least Squares Mean, Reference
Property Label: AUC(0-t)

Could you share which AUC(0-t) value was measured for N#CC1(c2ccc(NC(=O)c3cccnc3NCc3ccncc3)cc2)CCCC1 ? 2550 ng·h/mL

---

Experimental Target: CYP2C9 (Homo sapiens, UniProt P11712)
Sequence (P11712 whole entry): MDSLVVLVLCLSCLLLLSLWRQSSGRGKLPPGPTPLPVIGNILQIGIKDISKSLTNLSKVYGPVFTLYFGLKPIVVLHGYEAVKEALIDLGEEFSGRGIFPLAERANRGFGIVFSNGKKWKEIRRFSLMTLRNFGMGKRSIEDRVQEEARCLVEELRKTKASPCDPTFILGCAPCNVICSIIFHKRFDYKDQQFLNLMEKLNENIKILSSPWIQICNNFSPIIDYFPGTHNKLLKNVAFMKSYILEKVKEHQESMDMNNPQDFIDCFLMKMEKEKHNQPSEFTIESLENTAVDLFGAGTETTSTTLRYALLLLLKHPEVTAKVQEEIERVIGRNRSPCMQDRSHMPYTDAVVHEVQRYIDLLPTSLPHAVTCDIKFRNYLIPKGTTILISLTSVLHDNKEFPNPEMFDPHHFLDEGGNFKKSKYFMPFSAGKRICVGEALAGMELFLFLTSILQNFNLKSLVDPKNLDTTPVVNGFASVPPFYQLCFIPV
Procedure Summary: In vitro CYP phenotyping and metabolism study, recombinant CYP2C9
Assay type: in vitro ADME
Assay Conditions: human; Recombinant CYP2C9; 5 μM; read-out: t½
Property Label: half-life at 5 µM (h)
Please give a number only; it is taken to be in h.

Test system CYP2C9 (Homo sapiens, UniProt P11712); read-out half-life at 5 µM; what value for N#CC1(c2ccc(NC(=O)c3cccnc3NCc3ccncc3)cc2)CCCC1 [Rivoceranib] ? 3.9

---

Procedure Summary: Phase 1 single-dose plasma pharmacokinetics in subjects with normal hepatic function, mild or moderate hepatic impairment
Format: in vivo, human
Assay Conditions: human, plasma, po, 200 mg, Moderate Hepatic Impairment; 48 h; 200 mg single oral dose; read-out: Plasma concentration, Median
Property Label: concentration at 48 h (ng/mL)
Report only the number, with the unit ng/mL understood.

# get_value(readout='concentration at 48 h', item= N#CC1(c2ccc(NC(=O)c3cccnc3NCc3ccncc3)cc2)CCCC1 [Rivoceranib] ) 15.5

---

Experimental Target: CYP2C19 (Homo sapiens)
Sequence (P33261 whole entry): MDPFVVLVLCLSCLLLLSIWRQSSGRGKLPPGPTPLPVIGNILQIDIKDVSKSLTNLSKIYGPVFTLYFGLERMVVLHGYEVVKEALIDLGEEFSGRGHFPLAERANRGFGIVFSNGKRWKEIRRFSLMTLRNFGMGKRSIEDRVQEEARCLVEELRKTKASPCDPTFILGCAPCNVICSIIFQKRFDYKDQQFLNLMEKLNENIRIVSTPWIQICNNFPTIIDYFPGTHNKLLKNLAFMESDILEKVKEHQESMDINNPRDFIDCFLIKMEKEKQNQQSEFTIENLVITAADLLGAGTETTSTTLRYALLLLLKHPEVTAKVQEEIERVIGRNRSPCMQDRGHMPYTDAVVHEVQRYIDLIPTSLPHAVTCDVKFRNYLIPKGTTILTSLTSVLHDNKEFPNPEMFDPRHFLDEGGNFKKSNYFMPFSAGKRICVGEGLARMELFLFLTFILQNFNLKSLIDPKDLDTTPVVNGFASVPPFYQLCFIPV
Procedure Summary: In vitro CYP phenotyping and metabolism study, recombinant CYP2C19
Assay type: in vitro ADME
Assay Conditions: human; Recombinant CYP2C19; 5 μM; read-out: t½
Property Label: half-life at 5 µM (h)
Value expressed in h; do not type the unit.

I'd like to know its half-life at 5 µM. The molecule in question is N#CC1(c2ccc(NC(=O)c3cccnc3NCc3ccncc3)cc2)CCCC1 8.05

---

Procedure Summary: Phase 1 single-dose plasma pharmacokinetics in subjects with normal hepatic function, mild or moderate hepatic impairment
Format: in vivo, human
Assay Conditions: human, plasma, po, 200 mg, Moderate Hepatic Impairment; 4 h; 200 mg single oral dose; read-out: Plasma concentration, Geometric Mean
Property Label: concentration at 4 h (ng/mL)
Give a bare numeral; the unit ng/mL is implied.

Looking for the measured concentration at 4 h of N#CC1(c2ccc(NC(=O)c3cccnc3NCc3ccncc3)cc2)CCCC1 , can you help? 121

---

Procedure Summary: Phase 1 single-dose plasma pharmacokinetics in subjects with normal hepatic function, mild or moderate hepatic impairment
Type: in vivo, human
Assay Conditions: human, plasma, po, 200 mg, Normal Hepatic Function; 6 h; 200 mg single oral dose; read-out: Plasma concentration, Arithmetic Mean
Property Label: concentration at 6 h
Respond with the figure and its unit, in that order.

Recorded concentration at 6 h for N#CC1(c2ccc(NC(=O)c3cccnc3NCc3ccncc3)cc2)CCCC1 , please? 131 ng/mL

---

Procedure Summary: Phase 1 single-dose plasma pharmacokinetics in subjects with normal hepatic function, mild or moderate hepatic impairment
Type: in vivo, human
Assay Conditions: human, plasma, po, 200 mg, Moderate Hepatic Impairment; 3 h; 200 mg single oral dose; read-out: Plasma concentration, Median
Property Label: concentration at 3 h (ng/mL)
Respond with the bare value in ng/mL.

Given the molecule N#CC1(c2ccc(NC(=O)c3cccnc3NCc3ccncc3)cc2)CCCC1 , what is its reported concentration at 3 h? 162

---

Procedure Summary: Phase 1 study: unbound plasma concentration and fraction unbound (protein binding)
Assay type: in vivo, human
Assay Conditions: human, plasma, po, 200 mg, Moderate Hepatic Impairment; 4 h; 200 mg single oral dose; read-out: Fraction Unbound, Geometric Mean
Property Label: fraction unbound at 4 h
# respond with the number and nothing more

Entry N#CC1(c2ccc(NC(=O)c3cccnc3NCc3ccncc3)cc2)CCCC1 has what fraction unbound at 4 h? 0.0373

---

Procedure Summary: Phase 1 single-dose plasma pharmacokinetics in subjects with normal hepatic function, mild or moderate hepatic impairment
Format: in vivo, human
Assay Conditions: human, plasma, po, 200 mg, Mild Hepatic Impairment; 200 mg single oral dose; read-out: AUC0-∞, Arithmetic Mean
Property Label: AUC(0-inf)
Number first, unit second: that is the form wanted.

Form field: reported AUC(0-inf) of N#CC1(c2ccc(NC(=O)c3cccnc3NCc3ccncc3)cc2)CCCC1 [Rivoceranib] 2840 ng·h/mL

---

Procedure Summary: Phase 1 single-dose plasma pharmacokinetics in subjects with normal hepatic function, mild or moderate hepatic impairment
Format: in vivo, human
Assay Conditions: human, plasma, po, 200 mg, Normal Hepatic Function; 200 mg single oral dose; read-out: Cmax, Arithmetic Mean
Property Label: Cmax (ng/mL)
Please state the figure in ng/mL; there is no need to write the unit.

Quick one: Cmax of N#CC1(c2ccc(NC(=O)c3cccnc3NCc3ccncc3)cc2)CCCC1 ? 271
